From: ChEMBL document CHEMBL1201862

Measured GI50 of individual entries
# Tested on: HCC 2998
# experimentDescription: NCI tumour cell line growth inhibition, 48 h
Activity calls are given as the source filed them. No stated cut-off is given here; in the data, active = GI50 up to about 1.1 µM and inactive = higher.

CCNC(=O)O/N=C1\CCC2[C@@H]3CC=C4C[C@@H](OC(=O)NCC)CC[C@]4(C)C3CC[C@]12C (stereo not given in full) | 4.68 µM (inactive)

// sample CCn1cc(C(c2ccc(Cl)cc2)n2ccnc2)c2cc(Br)ccc21 (stereo not given) , its GI50 was 13.2 µM (inactive)

// sample CCOC(=O)c1cc(-c2ccc(OC)cc2)c([N+](=O)[O-])n1C , its GI50 was > 10 µM (inactive)

###

# System: EKVX
# experimentDescription: NCI tumour cell line growth inhibition, 48 h
The source made the active and inactive calls. No stated cut-off is given here; in the data, active = GI50 up to about 1.1 µM and inactive = higher.
Please answer using one outcome listed in active, inactive

CC(CO)CCC(O)C(C)(O)C1CCC2(O)C3=CC(=O)C4CC(O)C(O)CC4(C)C3CCC12C (stereo not given) | inactive
Cc1nc2sccn2c1C(=O)OCCOCCOCCOCCOC(=O)c1c(C)nc2sccn12 | inactive
O=C1Nc2ccccc2Nc2ccncc21 | inactive

-- ask Write down the call the test reported for this molecule. Item: C(=C\c1cc[n+](CCc2ccccc2)cc1)/c1ccccc1
-- reply inactive

-- ask Write down the call the test reported for this molecule. Item: Cc1c(C2=C(Br)C(=O)N(C)C2=O)c(=O)n(C)c(=O)n1C
-- reply inactive

-- ask Write down the call the test reported for this molecule. Item: O=C1C(c2ccccc2)=C(c2ccccc2)C(c2ccc(Sc3ccc(C4=C(c5ccccc5)C(=O)C(c5ccccc5)=C4c4ccccc4)cc3)cc2)=C1c1ccccc1
-- reply inactive

-- ask Write down the call the test reported for this molecule. Item: Cc1ccc([N+](=O)[O-])c2c(NCCC[N+](C)(C)[O-])c3ccccc3nc12
-- reply active

-- ask Write down the call the test reported for this molecule. Item: CCOC(=O)N1CCc2cc(OC)c(OC)c3c2c1cc1cc(OC)c(OC)cc13
-- reply inactive

-- ask Write down the call the test reported for this molecule. Item: CN(C)C(=S)/N=c1\ss/c(=N\S(=O)(=O)c2ccccc2)n1-c1ccccc1
-- reply inactive

-- ask Write down the call the test reported for this molecule. Item: Oc1c(C(O)c2ccccn2)ccc2ccccc12 (stereo not given)
-- reply inactive

###

# Tested on: 786-0
# experimentDescription: NCI tumour cell line growth inhibition, 48 h
Calls of active or inactive are those of the source. Rule as the data show it: active = GI50 up to about 1.1 µM and inactive = higher.
Please answer using one outcome listed in YES for active, NO for inactive

CO[C@H]1O[C@@H]2CO[C@@H](c3ccccc3)O[C@H]2C[C@]12CCC/C=C\CO2 | NO

-- ask Write down the call the test reported for this molecule. Item: CN(CCC(=O)O)C1=Nc2ccc(Cl)cc2C(c2ccccc2)=[N+]([O-])C1
-- reply NO

-- ask Write down the call the test reported for this molecule. Item: Cc1cc(C)c2c(n1)S(=O)(=O)N(CCCN1CCN(c3cccc(C(F)(F)F)c3)CC1)C(C(=O)c1ccccc1)=C2O
-- reply NO

-- ask Write down the call the test reported for this molecule. Item: N#C/N=C(/NCc1ccccc1)N(Cc1ccccc1)Cc1ccccc1
-- reply NO

###

# Test system: CAKI-1
# experimentDescription: NCI tumour cell line growth inhibition, 48 h
Activity calls are given as the source filed them. Cut-off read from the data, not from the text of the source: active = GI50 up to about 1.1 µM and inactive = higher.
assayEndpoint: GI50

CCN(CC)c1c(N(CC)CC)c(=O)c1=O | 4.27 µM (inactive)
O=C(CC(C(=O)c1cccs1)c1ccsc1)c1ccco1 (configuration not stated) | 29.1 µM (inactive)
COc1cc(/C=C/c2ccncc2)cc(OC)c1OC | 49 µM (inactive)
COc1cc(-c2cc(=O)c3c(OC)c(OC)c(OC)cc3o2)c(OC)c(OC)c1OC | > 75 µM (inactive)
COC(=O)c1cc(C)ccc1CC(Cc1cccc(C)c1)C(=O)OC (configuration not stated) | > 100 µM (inactive)
CCCN(CCC)c1c([N+](=O)[O-])cc(S(N)(=O)=O)cc1[N+](=O)[O-] [ORYZALIN] | 13.6 µM (inactive)
COc1ccc(C2=C(Cl)c3cc(OC)c(OC)cc3C2Cl)cc1 (configuration not stated) | 15.4 µM (inactive)
CC(=O)N(/N=C\c1ccc([N+](=O)[O-])cc1)c1ccccc1 | > 100 µM (inactive)
CCOC(=O)CCC(NC(=O)Cc1ccc(Oc2nc3ccccc3nc2-c2cccs2)cc1)C(=O)OCC (configuration not stated) | 39.3 µM (inactive)
O=c1[nH]c2ccccc2cc1C(Cl)=C(Cl)Cl | > 100 µM (inactive)

// sample CC(C)CCCC(C)[C@H]1CC[C@H]2[C@@H]3CC[C@H]4C[C@@H](CCC=C(c5cc(Cl)c(O)c(C(=O)OC(C)(C)C)c5)c5cc(Cl)c(O)c(C(=O)OC(C)(C)C)c5)CC[C@]4(C)[C@H]3CC[C@]12C (some centres not stated) , its GI50 was > 50 µM (inactive)

// sample COc1ccc(OC)c(/C=N/N=C(\N)NO)c1 , its GI50 was 8.04 µM (inactive)

// sample CC1(C)CC2=NOS3=C2C(=NO3)C1c1ccccn1 (configuration not stated) , its GI50 was > 100 µM (inactive)

// sample COC1=CC(=O)C2[C@H]3Cc4ccccc4[C@H]3C2(C)C1=O (some centres not stated) , its GI50 was > 100 µM (inactive)

// sample COc1ccc(/C=C/c2cc(=O)cc(/C=C/c3ccc(OC)c(O)c3)o2)cc1O , its GI50 was 3.55 µM (inactive)
